Biological target: T1, mouse MMP-2 (Mus musculus, UniProt P33434)
T1 construct: purchased R&D Systems 924-MP-010
T1 sequence (P33434 110-662): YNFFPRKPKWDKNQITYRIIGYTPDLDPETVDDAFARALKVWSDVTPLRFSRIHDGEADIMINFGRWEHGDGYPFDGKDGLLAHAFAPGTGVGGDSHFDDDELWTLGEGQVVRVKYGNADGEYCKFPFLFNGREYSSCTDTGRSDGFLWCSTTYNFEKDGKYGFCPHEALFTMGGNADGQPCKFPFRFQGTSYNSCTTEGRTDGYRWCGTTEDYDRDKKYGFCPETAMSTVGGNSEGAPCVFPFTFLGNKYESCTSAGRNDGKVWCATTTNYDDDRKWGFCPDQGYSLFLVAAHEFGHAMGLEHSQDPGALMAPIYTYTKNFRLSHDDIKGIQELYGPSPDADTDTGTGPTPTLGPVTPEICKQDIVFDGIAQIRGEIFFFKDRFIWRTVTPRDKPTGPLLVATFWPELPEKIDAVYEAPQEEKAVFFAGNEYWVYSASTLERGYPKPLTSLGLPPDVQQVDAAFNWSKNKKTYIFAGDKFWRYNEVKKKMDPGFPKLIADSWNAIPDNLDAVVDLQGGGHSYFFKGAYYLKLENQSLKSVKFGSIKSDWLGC
Assay: Enzyme inhibition assay (single point inhibition, IC50/Ki,app), substrate M-2350
Format: biochemical
Conditions: small-scale sFab; Table 10
value kind: pKi
Lab note: report pKi as minus log10 of the concentration in molar units, number only.

For record M0274-G08: affinity matured variant of M237-D02, sFab (antibody, V domains shown) VH: EVQLLESGGGLVQPGGSLRLSCAASGFTFSVYDMWWVRQAPGKGLEWVSVIYPSGGATYYADSVKGRFTISRDNSKNTLYLQMNSLRAEDTAVYYCAKDRAYGDYVGWNGFDYWGQGTLVTVSS VL: QDIQMTQSPATLSLSPGERATLSCRASQSISSFLAWYQQKPGQAPRLLIYDASYRATGIPARFSGSGSGTDFTLTISSLEPEDYAVYYCQQRGNWPITFGQGTRLEIK the listed pKi is 8.57
